Reported pIC50 values for a set of compounds
Measured on: HER2YVMA (Homo sapiens, UniProt P04626, INS775YVMA)
Sequence (P04626 with tags, fused parts or gaps INS775YVMA): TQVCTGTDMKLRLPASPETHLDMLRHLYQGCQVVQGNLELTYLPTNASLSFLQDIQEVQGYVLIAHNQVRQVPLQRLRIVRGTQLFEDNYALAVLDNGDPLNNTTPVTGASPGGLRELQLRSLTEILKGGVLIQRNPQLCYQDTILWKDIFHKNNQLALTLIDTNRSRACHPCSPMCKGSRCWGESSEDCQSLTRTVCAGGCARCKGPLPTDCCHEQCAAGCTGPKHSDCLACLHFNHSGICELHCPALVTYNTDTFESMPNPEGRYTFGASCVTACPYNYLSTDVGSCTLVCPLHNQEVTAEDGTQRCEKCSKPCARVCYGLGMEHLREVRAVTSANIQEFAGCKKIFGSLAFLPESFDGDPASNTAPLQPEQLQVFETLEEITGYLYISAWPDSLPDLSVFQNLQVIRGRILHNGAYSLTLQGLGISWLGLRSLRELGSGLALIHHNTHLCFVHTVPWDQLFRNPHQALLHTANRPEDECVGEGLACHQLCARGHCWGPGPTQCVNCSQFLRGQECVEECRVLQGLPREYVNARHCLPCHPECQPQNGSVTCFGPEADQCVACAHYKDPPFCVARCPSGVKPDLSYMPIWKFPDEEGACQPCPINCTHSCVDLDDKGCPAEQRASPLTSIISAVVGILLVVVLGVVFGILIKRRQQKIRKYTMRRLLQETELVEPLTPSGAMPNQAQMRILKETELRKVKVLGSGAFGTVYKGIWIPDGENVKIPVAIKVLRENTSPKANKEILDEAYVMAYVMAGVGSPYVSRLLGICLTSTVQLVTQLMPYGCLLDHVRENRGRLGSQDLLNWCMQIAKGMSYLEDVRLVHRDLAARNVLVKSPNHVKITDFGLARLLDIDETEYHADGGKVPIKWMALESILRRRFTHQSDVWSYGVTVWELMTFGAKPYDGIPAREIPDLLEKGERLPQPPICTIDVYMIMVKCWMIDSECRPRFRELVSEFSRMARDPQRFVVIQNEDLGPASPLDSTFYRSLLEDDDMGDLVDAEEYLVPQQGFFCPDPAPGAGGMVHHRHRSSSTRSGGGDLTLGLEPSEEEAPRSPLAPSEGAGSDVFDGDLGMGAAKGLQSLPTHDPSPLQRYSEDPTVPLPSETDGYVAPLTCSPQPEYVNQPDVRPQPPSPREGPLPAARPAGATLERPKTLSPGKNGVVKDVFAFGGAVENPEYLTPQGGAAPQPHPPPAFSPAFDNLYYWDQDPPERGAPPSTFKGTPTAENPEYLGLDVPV
Test: Enzymatic assay HER2YVMA (method b)
Applied conditions: [HER2YVMA]=5 nM, [ATP]=25 μM, [Peptide 22]=1 μM
pIC50: −log10 of the molar value.

Record excerpt, results attached:
>>> df
                                   compound         value
0  Cc1ccc(Oc2ccc(Nc3ncnc4sc5c(c34)C[C@@H](C)N(C(=O)/C=C/CN(C)C)[C@H]5C)cc2C)cn1 (racemic)        > 7.00
1  Cc1cc(Nc2ncnc3sc4c(c23)CCN(C(=O)/C=C/CN2CCOCC2)C4)ccc1Oc1ccc2ncnn2c1  6.00 to 7.00

Give the reported pIC50 for Cc1cc(Nc2ncnc3sc4c(c23)CN(C(=O)/C=C/CN(C)C)C4)ccc1Oc1ccc2ncnn2c1 (system: HER2YVMA (Homo sapiens, UniProt P04626, INS775YVMA)). > 7.00

Give the reported pIC50 for Cc1ccc(Oc2ccc(Nc3ncnc4sc5c(c34)CCN(C(=O)/C=C/CN3CC[C@@H](CO)C3)C5)cc2C)cn1 (system: HER2YVMA (Homo sapiens, UniProt P04626, INS775YVMA)). > 7.00
